# targetOrTestSystem: MLE dsRBD2 (UniProt P24785 155-257)
# testName: NMR titration; Filter binding: 20 mM HEPES/NaOH pH 8.0, 150 mM NaCl, 5 mM MgCl2, on ice; ITC: 10 mM HEPES pH 8.0, 75 mM NaCl, 2.5 mM MgCl2, 1 mM b-mercaptoethanol, 20 C; NMR:
# reportedConditions: protein: recombinant; tags: N-terminal His6 removed by TEV; blunt, internal A-C mismatch and G-U pairs

binder | Kd
SL7 18mer duplex (dsRNA) RNA 1: AGACGUGUAAAAUGUUGC RNA 2: GUAACGUUUUACGCGCCU | ~33 µM
